system: HCT-15 colon; assay: NCI-60 one-dose screen, 48 h; settings: 10 µM unless noted
About 83,000 compounds went through this panel and 20% of them were active in at least one assay; those are over-represented in the sample as a whole. Activity calls are given as the source filed them. How the source made its calls: active means growth percent below 10; inactive means the rest.
Lab note: assign the record to one of active, inactive

Please review the entries below; each comes with its answer.
- CN1CCN(Cc2ccc(NC(=O)c3cncc(C#Cc4cnccc4C#N)c3)cc2C(F)(F)F)CC1: inactive
- COc1ccc2sc3c(NCCO)nc4ccccc4c3c(=O)c2c1: inactive

Record lookup: outcome of this test for CC[C@H](C)C(=O)O[C@H]1CCC=C2C=C[C@H](C)[C@H](CC[C@@H]3CC=CC(=O)O3)[C@H]21 ? inactive

In this assay, the call recorded for COc1cccc(Oc2ccccc2NC(=O)CNC(=O)c2cccc3ccccc23)c1 was what? inactive

Which outcome was assigned to CSc1ccc2c(c1)c(CCN)c(C)n2Cc1ccc(Cl)c(Cl)c1 in this test? active

How did this test come out for COc1cc(C)c(Cc2cnc(N)nc2N)cc1OC ? inactive

Answer briefly: the call reported for C#Cc1cccc(NC(=O)c2ccc(NC(=O)C=C)cc2)c1 in this assay. inactive

----------
Documented growth across a set of compounds
test system: MALME-3M melanoma; assay: NCI-60 one-dose screen, 48 h (100 = growth as untreated, 0 = no growth, -100 = all killed); conditions: 10 µM unless noted
Compounds without any hit were thinned out: in the full panel of roughly 83,000, 20% have a hit. Active and inactive are the calls of the source. The calls were made as follows: active = growth percent below 10; inactive = the rest.

Worked cases, growth given:
- COc1ccc2c(c1)c(-c1nn3cc(-c4cccs4)nc3s1)cn2C: 72.1% (inactive)
- C=C1C(=O)O[C@H]2[C@H]1CC/C(COC(=O)NCCOCCOCC(=O)Nc1ccc(OC)c(C(N)=O)c1O)=C\CC[C@@]1(C)O[C@@H]21: 62.1% (inactive)
- O=c1n(Cc2ccc3ccccc3c2)ccn1Cc1ccc2ccccc2c1: 91.8% (inactive)
- O=C(Nc1nc2ccc(F)cc2s1)c1cccnc1Nc1ccc(Cl)cc1Cl: -15.9% (active)
- COc1cccc2c(=O)c3c(sc12)c(N1CCNCC1)nc1ccccc13: 104% (inactive)
- O=C(O)C(c1ccccc1)N1C(=O)CSC1=S (stereo not drawn): 107% (inactive)

The compound identified as CCCC1CCC(O)(C(C)(O)C(=O)NC2C(=O)N3NCCCC3C(=O)N(O)C(C)C(=O)N3NCCCC3C(=O)N3NCC(O)CC3C(=O)NC(C)C(=O)OC2C(C)C)OC1CC (stereo not drawn) registered its growth at -71.7% (active)

// recorded growth for COc1c(N2CC3CCCN(C(C)=O)C3C2)c(F)cc2c(=O)c(C(=O)N[C@H]3C(O)[C@@H](O)C(CO)O[C@H]3O)cn(C3CC3)c12 (stereo partly drawn) : 117% (inactive)

----------
tested on: NCI/ADR-RES ovarian; test: NCI-60 one-dose screen, 48 h (100 = growth as untreated, 0 = no growth, -100 = all killed); details: 10 µM unless noted
About 83,000 compounds went through this panel and 20% of them were active in at least one assay; those are over-represented in the sample as a whole.
Could you please mark Criterion met for values of growth below 90% and Criterion not met for values at or above it?

For COc1cc2cc(Oc3ccc(NC(=O)Nc4cc(C(F)(F)F)cc(C(F)(F)F)c4)cc3)c(C)nc2cc1OCCN1CCOCC1 , is the recorded growth below the cut-off of 90%? Criterion met

Strictly below 90%: is that where growth of O=C(CCN1C(=O)/C(=C/c2ccc(O)cc2)SC1=S)Nc1ccc(Cl)cc1 sits? Criterion not met

Problem: For the molecule CCN(CC)c1ccc(C2=NN(C(C)=O)C(c3cc(OC)c(OC)c(OC)c3)C2)cc1 (stereo not given) , is growth under 90%? Criterion met

Please state whether growth is below 90% for COc1ccc(OC)c(/C=C/c2nnc(Nc3ccccc3)o2)c1 Criterion not met
